pIC50: recorded values
# STUDY_SYSTEM: human IKKβ (Homo sapiens, UniProt O14920)
# Construct: FLAG (N)
# Sequence (O14920 1-756): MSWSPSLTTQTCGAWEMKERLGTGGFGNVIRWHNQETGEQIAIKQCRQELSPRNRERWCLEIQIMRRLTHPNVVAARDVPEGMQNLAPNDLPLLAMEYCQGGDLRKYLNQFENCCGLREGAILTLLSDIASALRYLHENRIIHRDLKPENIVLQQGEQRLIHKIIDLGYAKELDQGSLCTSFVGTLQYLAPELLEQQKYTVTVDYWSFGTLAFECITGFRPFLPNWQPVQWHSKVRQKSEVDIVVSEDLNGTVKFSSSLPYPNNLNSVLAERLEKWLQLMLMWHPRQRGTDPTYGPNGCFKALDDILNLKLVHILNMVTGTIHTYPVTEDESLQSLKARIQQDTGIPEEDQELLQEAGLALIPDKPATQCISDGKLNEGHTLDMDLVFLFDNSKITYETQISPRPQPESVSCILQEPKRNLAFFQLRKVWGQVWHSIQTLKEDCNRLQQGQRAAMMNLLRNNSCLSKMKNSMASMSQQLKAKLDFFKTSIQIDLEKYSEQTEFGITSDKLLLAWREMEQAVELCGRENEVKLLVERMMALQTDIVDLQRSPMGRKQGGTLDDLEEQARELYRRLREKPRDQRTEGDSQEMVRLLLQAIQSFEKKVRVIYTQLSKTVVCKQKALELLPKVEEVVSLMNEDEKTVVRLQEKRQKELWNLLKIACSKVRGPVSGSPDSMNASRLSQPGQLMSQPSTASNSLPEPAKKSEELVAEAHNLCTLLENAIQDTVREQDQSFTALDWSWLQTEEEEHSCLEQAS
# RUN_DESCRIPTION: IKKβ kinase inhibition assay (phosphorylation of IκBα substrate, 33P-ATP)
# Assay type: biochemical
# SETTINGS: flag-tagged human IKKβ 0.9 μg/ml, GST-IκBα (1-54) 53 μg/ml, 250 nM ATP, 1 hour at 25° C.
pIC50: −log10 of the molar value.

COMPOUND	pIC50
NC(=O)c1sc2nc(N3CCC(NCCO)CC3)cc(C(F)(F)F)c2c1N	> 6.00
CCCc1cc(N2CCC(NCC(O)CNc3cccc(C(N)=O)c3)CC2)nc2sc(C(N)=O)c(N)c12 (stereo not drawn)	> 6.00
CCCc1cc(N2CCC(NC3CC3)CC2)nc2sc(C(N)=O)c(N)c12	> 6.00
CNC1CCN(c2cc(SC)c3c(N)c(C(N)=O)sc3n2)CC1	> 6.00
CCCc1cc(N2CCC(NCC(O)COc3ccc(C(F)(F)F)cc3)CC2)nc2sc(C(N)=O)c(N)c12 (stereo not drawn)	> 6.00
NC(=O)c1sc2nc(N3CCC(N)CC3)cc(/C=C/c3ccncc3)c2c1N	> 6.00
CCCc1cc(N2CCC(NCC(O)Cc3ccc(C(N)=O)cc3)CC2)nc2sc(C(N)=O)c(N)c12 (stereo not drawn)	> 6.00
CCCc1cc(N2CCC(NC[C@H](O)COc3ccccc3)CC2)nc2sc(C(N)=O)c(N)c12	> 6.00

--- query ---
# pIC50 lookup, item CCCc1cc(N2CCC(NCC(=O)NCC(N)=O)CC2)nc2sc(C(N)=O)c(N)c12
> 6.00

Hey, just so you know, these numbers are from patent US6974870B2.
